// activity coefficient lookup, one value per entry
# protocol: activity coefficient (dimensionless); of the first substance listed, at infinite dilution; xn = mol fraction of the nth substance listed
# setup.conditions: 358.15 K; 101 kPa; Liquid; Chromatography; x1 = 0
Could you keep your reply to the number by itself?

Here is how some compounds turned out for activity coefficient.
- compound: "C1=CCCCC1 [cyclohexene] + CCCCCC[N+]1(C)CCCCC1.O=S(=O)([N-]S(=O)(=O)C(F)(F)F)C(F)(F)F"
  activity coefficient: 2.75
- compound: "C#CCCCCC [1-heptyne] + CCCCC[N+]1(C)CCCCC1.O=S(=O)([N-]S(=O)(=O)C(F)(F)F)C(F)(F)F"
  activity coefficient: 2.94
- compound: "CCCCCCC [heptane] + CCCCCC[N+]1(C)CCCCC1.O=S(=O)([N-]S(=O)(=O)C(F)(F)F)C(F)(F)F"
  activity coefficient: 8.2
- compound: "COC(C)(C)C [2-methoxy-2-methylpropane] + CCCCC[N+]1(C)CCCCC1.O=S(=O)([N-]S(=O)(=O)C(F)(F)F)C(F)(F)F"
  activity coefficient: 1.98

Need activity coefficient of C=CCCCC [hex-1-ene] + CCCCC[N+]1(C)CCCCC1.O=S(=O)([N-]S(=O)(=O)C(F)(F)F)C(F)(F)F , thanks.
4.8

Need activity coefficient of CC(C)=O [acetone] + CCCCCC[N+]1(C)CCCCC1.O=S(=O)([N-]S(=O)(=O)C(F)(F)F)C(F)(F)F , thanks.
0.46

Need activity coefficient of C=CCCCCCCCC [1-decene] + CCCCC[N+]1(C)CCCCC1.O=S(=O)([N-]S(=O)(=O)C(F)(F)F)C(F)(F)F , thanks.
14.6

====

# protocol: activity coefficient (dimensionless); of the first substance listed, at infinite dilution; xn = mol fraction of the nth substance listed
# setup.conditions: 338.15 K; 101 kPa; Liquid; Chromatography; x1 = 0
Under this convention, TRUE denotes activity coefficient strictly below 2 and FALSE denotes activity coefficient at or above 2.

Lab log: compare recorded activity coefficient with 2; is it strictly lower for CCC(C)(C)C [2,2-dimethylbutane] + CCCCC[N+]1(C)CCCCC1.O=S(=O)([N-]S(=O)(=O)C(F)(F)F)C(F)(F)F ?
FALSE

Lab log: compare recorded activity coefficient with 2; is it strictly lower for CCCCC [pentane] + CCCCCC[N+]1(C)CCCCC1.O=S(=O)([N-]S(=O)(=O)C(F)(F)F)C(F)(F)F ?
FALSE

Lab log: compare recorded activity coefficient with 2; is it strictly lower for CCC(C)(C)OC [2-methoxy-2-methylbutane] + CCCCCC[N+]1(C)CCCCC1.O=S(=O)([N-]S(=O)(=O)C(F)(F)F)C(F)(F)F ?
FALSE

Lab log: compare recorded activity coefficient with 2; is it strictly lower for C#CCCCCC [1-heptyne] + CCCCC[N+]1(C)CCCCC1.O=S(=O)([N-]S(=O)(=O)C(F)(F)F)C(F)(F)F ?
FALSE

Lab log: compare recorded activity coefficient with 2; is it strictly lower for CCO [ethanol] + CCCCC[N+]1(C)CCCCC1.O=S(=O)([N-]S(=O)(=O)C(F)(F)F)C(F)(F)F ?
TRUE

====

# protocol: activity coefficient (dimensionless); of the first substance listed, at infinite dilution; xn = mol fraction of the nth substance listed
# setup.conditions: 308.15 K; 101 kPa; Liquid; Chromatography; x1 = 0
// activity coefficient lookup, one value per entry
Could you keep your reply to the number by itself?

- compound: "Cc1ccccc1C [1,2-dimethylbenzene] + CCCCC[N+]1(C)CCCCC1.O=S(=O)([N-]S(=O)(=O)C(F)(F)F)C(F)(F)F"
  activity coefficient: 1.06
- compound: "C=CCCCCCC [oct-1-ene] + CCCCCC[N+]1(C)CCCCC1.O=S(=O)([N-]S(=O)(=O)C(F)(F)F)C(F)(F)F"
  activity coefficient: 7.72
- compound: "C=CCCCC [hex-1-ene] + CCCCC[N+]1(C)CCCCC1.O=S(=O)([N-]S(=O)(=O)C(F)(F)F)C(F)(F)F"
  activity coefficient: 5.52
- compound: "CCCCC(C)=O [2-hexanone] + CCCCCC[N+]1(C)CCCCC1.O=S(=O)([N-]S(=O)(=O)C(F)(F)F)C(F)(F)F"
  activity coefficient: 0.694
- compound: "C#CCCC [1-pentyne] + CCCCC[N+]1(C)CCCCC1.O=S(=O)([N-]S(=O)(=O)C(F)(F)F)C(F)(F)F"
  activity coefficient: 1.54

Need activity coefficient of C1=CCCCC1 [cyclohexene] + CCCCC[N+]1(C)CCCCC1.O=S(=O)([N-]S(=O)(=O)C(F)(F)F)C(F)(F)F , thanks.
3.73

Need activity coefficient of c1ccsc1 [thiophene] + CCCCCC[N+]1(C)CCCCC1.O=S(=O)([N-]S(=O)(=O)C(F)(F)F)C(F)(F)F , thanks.
0.614

Source listed as the NIST ThermoML archive (doi:10.1016/j.jct.2013.01.005).
